Entries annotated with measured growth
test system: MALME-3M melanoma; experiment: NCI-60 one-dose screen, 48 h (100 = growth as untreated, 0 = no growth, -100 = all killed); conditions: 10 µM unless noted
This is part of a sample that, as a whole, favours compounds with a hit. Of some 83,000 tested, about 20% had one in any assay.
Kindly answer with a numeric value in %, unit omitted.

Some solved entries appear below for comparison.
Cn1ccnc1C(=O)/C=C/c1ccc(NC(=O)Nc2ccc(F)cc2)cc1 : 69
COc1cccc(COc2ccc(/C=C3/C(=O)Nc4cc(Cl)ccc43)cc2)c1 : 96.7
CC(C)(C)OC(=O)N1C(=O)c2c(c3c4ccccc4[nH]c3c3ccc4ccccc4c23)C1=O : 48.1
CCOC(=O)c1csc(NC(=O)CSc2nc3sc4c(c3c(=O)n2-c2ccc(Cl)cc2)CCCC4)n1 : 104

Here is the next item to consider.
Form: compound = Cc1cccc2sc(/N=C(\N)C(Cl)(Cl)Cl)nc12 ; growth = 102

* * *

Entries annotated with measured growth
Tested on: HCT-15 colon
Test: NCI-60 one-dose screen, 48 h (100 = growth as untreated, 0 = no growth, -100 = all killed)
Conditions: 10 µM unless noted
Protocol: Growth inhibition of the HCT-15 human tumor cell line is measured as a screen for anti-cancer activity. Cells are grown in 96 well plates and exposed to the test compound for 48 hours. Compounds are tested at a single concentration, which is 10^-5 M for most compounds. The reported endpoint is percent growth (GI% or GIPRCNT), where numbers from 0 - 100% represent growth inhibition, and numbers from -100% - 0 represent cell death. For example, a value of 40 represents 60% growth inhibition. […]
Compounds without any hit were thinned out: in the full panel of roughly 83,000, 20% have a hit.
Kindly answer with a numeric value in %, unit omitted.

Some solved entries appear below for comparison.
C/C(=N/NC(N)=S)c1ccc(Nc2nc(SCC(C)C)nc(-c3ccc(F)cc3)c2C#N)cc1 : 25.2
NS(=O)(=O)c1cccc(Nc2nc(SCC(=O)c3ccc([N+](=O)[O-])cc3)nc3ccccc23)c1 : 34.5
N/C(=N\c1nc2c(Cl)cc(Cl)cc2s1)C(Cl)(Cl)Cl : 57.5
CS(=O)(=O)c1ccc(-c2nc3ccccn3c2C=Nc2ccc(Cl)cc2)cc1 : 34.3
COc1cc(/C=C/C(=O)c2cc(OC)c(OC)c(OC)c2)ccc1Oc1nc(NCCO)nc(N2CCOCC2)n1 : -9.13
Cn1ccnc1C(=O)/C=C/c1ccc(NC(=O)Nc2ccccc2)cc1 : 12.4

So the reported growth for Cc1sc2c(c1C)c(=O)nc1c(-c3nc(-c4ccc(F)cc4)no3)n[nH]n12 , on HCT-15 colon, turned out to be 92.5

So the reported growth for COc1ccc(C(=O)c2cc(C(=O)/C=C/c3c(Cl)cccc3Cl)c3cc(C)ccn23)cc1 , on HCT-15 colon, turned out to be 99.9

So the reported growth for Cn1c(SCC(=O)Nc2ccc(-c3nc4ccc([N+](=O)[O-])cc4[nH]3)cc2)nc2ccccc2c1=O , on HCT-15 colon, turned out to be 78.2

So the reported growth for C#Cc1nc(C2=C(C)C(O)/C(=N/O)C2)cs1 (stereo not given) , on HCT-15 colon, turned out to be 88.1

So the reported growth for O=C1c2c(c3c4cccnc4[nH]c3c3ccc4ccccc4c23)C(=O)N1CCO , on HCT-15 colon, turned out to be 72.1

So the reported growth for CC(C)(O)c1cncc(-c2ccc3ncnc(N4CCc5cc(F)c(Cl)cc54)c3c2)c1 , on HCT-15 colon, turned out to be 14.1

So the reported growth for Nc1cc(-c2c[nH]c3ccc(F)cc23)nc2cc(-c3c[nH]c4ccc(F)cc34)nn12 , on HCT-15 colon, turned out to be 31

So the reported growth for COc1cc2nc(-c3ccc(Cl)cc3)cc(OCCCNCC3CCCO3)c2cc1OC (stereo not given) , on HCT-15 colon, turned out to be 23.9

So the reported growth for O=c1/c(=C\c2ccc(-c3ccccc3)o2)sc2nc(-c3ccccc3)nn12 , on HCT-15 colon, turned out to be 91.8

So the reported growth for O=C(CN1C(=O)/C(=C/c2ccccc2)SC1=S)N1CCOCC1 , on HCT-15 colon, turned out to be 88.2

* * *

tested on: DU-145 prostate; assay: NCI-60 one-dose screen, 48 h (100 = growth as untreated, 0 = no growth, -100 = all killed); conditions: 10 µM unless noted
This is part of a sample that, as a whole, favours compounds with a hit. Of some 83,000 tested, about 20% had one in any assay.
measured_property: growth (%)
Kindly answer with a numeric value in %, unit omitted.

CS(=O)(=O)c1ccc(-c2nc3ccccn3c2C=Nc2ccc(Cl)cc2)cc1 : 61.3
O=C(N/N=C/c1ccc(Br)s1)c1[nH]c2ccc(Br)cc2c1-c1ccccc1 : 18.6
COc1ccc(-c2nn3c(-c4ccccc4F)nnc3s2)cc1 : 72.2
Nc1nc(N)c2c(n1)NC(c1ccc(C(F)(F)F)cc1)CC(c1ccc(Nc3nc(NCCO)nc(Nc4ccc(Cl)cc4)n3)cc1)=N2 (centres undefined) : -93.1
NC(=O)c1cc(-c2ccc3ncnc(N4CCc5cc(F)c(Cl)cc54)c3c2)cnc1N : 14.3

Form: compound = O=C1Nc2ccc(Cl)cc2/C1=C/c1ccc(OCC(=O)c2ccc(Br)cc2)cc1 ; growth = 103

Form: compound = COc1cccc(N2CCN(c3ncnc4c3[nH]c3ccc(F)cc34)C[C@@H]2C)c1 ; growth = -67.3

Form: compound = CCCCN1C(=O)/C(=c2\sc3n(c2=O)C2C(NN=3)N(CC)C(=O)N2CC)c2cc(Cl)ccc21 (centres undefined) ; growth = 94.8

Form: compound = CNC(=O)c1cc(-c2ccc(NC(=O)Nc3ccc(N4CCN(C)CC4)c(C(F)(F)F)c3)cc2)nc2cccnc12 ; growth = -81.7

* * *

system: OVCAR-3 ovarian; assay: NCI-60 one-dose screen, 48 h (100 = growth as untreated, 0 = no growth, -100 = all killed); conditions: 10 µM unless noted
Compounds without any hit were thinned out: in the full panel of roughly 83,000, 20% have a hit.
measured_property: growth (%)
Kindly answer with a numeric value in %, unit omitted.

Some solved entries appear below for comparison.
Fc1ccc(-c2nc(C(Cl)Cl)nc3cc(-c4ccccc4)nn23)cc1 : -28.1
C/C(=N/NC(N)=S)c1ccc(Nc2nc(SCC(C)C)nc(-c3ccc(F)cc3)c2C#N)cc1 : -19.5
CS(=O)(=O)c1ccc(-c2nc3ccccn3c2/C=N/Nc2nc(-c3ccc(Cl)cc3)cs2)cc1 : 124
COc1cc(/C=C/C(=O)c2ccccc2)ccc1Oc1nc(NCCO)nc(N2CCOCC2)n1 : 124
C#Cc1nc(C2=C(C)C(=O)/C(=N/OC(C)=O)C2)cs1 : 111
CC(=O)Oc1ccccc1C(=O)Nc1cc(C(C)C)ccc1C : 6.75
COc1cccc(N2CCN(c3ncnc4c3[nH]c3ccc(F)cc34)C[C@@H]2C)c1 : -7.65
CC(C)(C)Nc1nc2c(OCCc3ccccc3)cccn2c1-c1ccc(O)cc1 : 74.9
OC1CCN(CCCOc2c3ccccc3nc3c2oc2ccc(Cl)cc23)CC1 : 27.7
CCCSc1nc(Nc2ccc(/C(C)=N\NC(N)=S)cc2)c(C#N)c(-c2ccc(OC)cc2)n1 : 67.3

Form: compound = O=C(CSc1nc2sc3c(c2c(=O)n1-c1ccc(Cl)cc1)CCCC3)NNC(=O)Nc1cccc(C(F)(F)F)c1 ; growth = 5.17

Form: compound = C#Cc1nc(C2=C(C)/C(=N/OCc3ccccc3)CC2)cs1 ; growth = 74.2

Form: compound = CN(C)CCCNc1c2ccccc2nc2c1oc1ccc(Cl)cc12 ; growth = 63.5

Form: compound = Cn1ccnc1C(=O)/C=C/c1ccc(NC(=O)Nc2ccc(Cl)cc2)cc1 ; growth = 84.2

Form: compound = CN1CCc2c(sc3ncnc(N/N=C/c4ccc(Cl)c(Cl)c4)c23)C1 ; growth = 71.5

Form: compound = O=C(N/N=C/c1ccc([N+](=O)[O-])o1)c1[nH]c2ccc(Br)cc2c1-c1ccccc1 ; growth = 21.9

Form: compound = CCCCCCNC(=O)Oc1ccc(/C(=C(/C)c2ccccc2)c2ccc(OCCN3CCCCCC3)cc2)cc1 ; growth = 48.9

Form: compound = Cc1ccc2ccc3ccc(C)nc3c2n1.Cc1ccc2ccc3ccc(C)nc3c2n1.Oc1c(Cl)cc(Cl)c2ccc(CN3CCCCC3)nc12.[Ru] ; growth = -95.3

Form: compound = O=C1Nc2cc(Cl)ccc2/C1=C\c1ccc(OCc2ccc([N+](=O)[O-])cc2)cc1 ; growth = 87.8

Form: compound = Clc1ccc2oc3c(OCCCn4ccnc4)c4ccccc4nc3c2c1 ; growth = 101

* * *

tested on: SW-620 colon; test: NCI-60 one-dose screen, 48 h (100 = growth as untreated, 0 = no growth, -100 = all killed); settings: 10 µM unless noted
About 83,000 compounds went through this panel and 20% of them were active in at least one assay; those are over-represented in the sample as a whole.
Rule: growth below 60% gives y. Equal to or above 60% gives n.

Answered examples (3):
COC1CCN(Cc2ccc3c(NNC(=O)c4cnccn4)nc4cc(F)ccc4n23)C1 (stereo not given) : y
NS(=O)(=O)c1cccc(Nc2nc(SCC(=O)c3ccc(Cl)cc3)nc3ccccc23)c1 : n
COc1ccc(/C=N/NC(=O)c2[nH]c3ccc(Br)cc3c2-c2ccccc2)s1 : y

Is growth of O=c1[nH]c2ccccc2cc1CSc1ccccc1Nc1nccc(-c2ccc(C(F)(F)F)cc2)n1 strictly below 60%?
n
